- Test system: Staphylococcus aureus
- experiment.summary: Antimicrobial activity against Staphylococcus aureus SH1000 after 72 hrs by broth microdilution method
- Type: functional
- details: SH1000, 72 h
value.type: MIC (µM)

smiles_text=CCCCCCCCCCCCCC[N+](C)(C)CCN(C)CCN(C)CC[N+](C)(C)CCCCCCCCCCCCCC value_reported=2
smiles_text=CCCCCCCCCCCCCCCC[N+](C)(C)CCCCC[N+](C)(C)CCCCCCCCCCCCCCCC value_reported=2
smiles_text=CCCCCCCCCCCC[N+](C)(C)CCCCCCC[N+](C)(C)CCCCCCCCCCCC value_reported=1
smiles_text=CCCCCCCCCC[N+](C)(C)CC[N+](C)(C)CC[N+](C)(C)CCCCCCCCCC value_reported=2
smiles_text=CCCCCCCCCCCC[N+](C)(C)CCN(C)CCN(C)CCN(C)C value_reported=8
smiles_text=CCCCCCCCCCCCCC[N+](C)(C)CC[N+](C)(C)CC[N+](C)(C)CCCCCCCCCCCCCC value_reported=1
smiles_text=CCCCCCCCCC[N+](C)(C)CCN(C)CC[N+](C)(C)CCCCCCCCCC value_reported=2
smiles_text=C=CC[N+](C)(CCC[N+](C)(C)CCCCCCCCCCCC)CCC[N+](C)(C)CCCCCCCCCCCC value_reported=1
smiles_text=CCCCCCCCCCCCCCCC[N+](C)(C)CCN(C)CC[N+](C)(C)CCCCCCCCCCCCCCCC value_reported=4

----------
- System: Staphylococcus aureus
- experiment.summary: Antimicrobial activity against Staphylococcus aureus SH1000 after 72 hrs by broth microdilution method
- Assay type: functional
- details: SH1000, 72 h
value.type: MIC (µM)

smiles_text=CCCCCCCCCCC[N+](C)(C)CC[N+](C)(C)CC[N+](C)(C)CCCCCCCCCCC target_system="Staphylococcus aureus" value_unit=µM value_reported=2
smiles_text=C=CC[N+](C)(CC[N+](C)(C)CCCCCCCCCC)CC[N+](C)(C)CCCCCCCCCC target_system="Staphylococcus aureus" value_unit=µM value_reported=2
smiles_text=CCCCCCCCCC[N+](C)(C)CCCCC[N+](C)(C)CCCCCCCCCC target_system="Staphylococcus aureus" value_unit=µM value_reported=2
smiles_text=CCCCCCCCCCCC[N+](C)(C)CCC[N+](C)(CCC[N+](C)(C)CCCCCCCCCCCC)Cc1ccc(CCCCCCCC)cc1 target_system="Staphylococcus aureus" value_unit=µM value_reported=1
smiles_text=CCCCCCCCCCCC[N+](C)(C)CCC[N+](C)(CCCC)CCC[N+](C)(C)CCCCCCCCCCCC target_system="Staphylococcus aureus" value_unit=µM value_reported=1
smiles_text=CCCCCCCCCCCC[N+](C)(C)CCC[N+](C)(CCC[N+](C)(C)CCCCCCCCCCCC)Cc1ccccc1 target_system="Staphylococcus aureus" value_unit=µM value_reported=1

----------
Each entry below lists one item and its recorded log10(MIC) value.
- Tested on: Staphylococcus aureus
- experiment.summary: Antimicrobial activity against Staphylococcus aureus SH1000 after 72 hrs by broth microdilution method
- Assay type: functional
- details: SH1000, 72 h
value.type: log10(MIC) (log10 of the value in µM)

compound=CCCCCCCCCCCCCC[N+](C)(C)CCCCC[N+](C)(C)CCCCCCCCCCCCCC target_system="Staphylococcus aureus" value_type=log10(MIC) value_reported=0.00
compound=C=CC[N+](C)(CC[N+](C)(C)CCCCCCCCCCCCCCCC)CC[N+](C)(C)CCCCCCCCCCCCCCCC target_system="Staphylococcus aureus" value_type=log10(MIC) value_reported=0.60
compound=CCCCCCCCCCCC[N+](C)(C)CCCCC[N+](C)(C)CCCCCCCCCCCC target_system="Staphylococcus aureus" value_type=log10(MIC) value_reported=0.30
compound=CCCCCCCCCCCC[N+](C)(C)CCC[N+](C)(CCCCCCCCCCCC)CCC[N+](C)(C)CCCCCCCCCCCC target_system="Staphylococcus aureus" value_type=log10(MIC) value_reported=-0.30
compound=CCCCCCCCCCCC[N+](C)(C)CCCN(C)CCC[N+](C)(C)CCCCCCCCCCCC target_system="Staphylococcus aureus" value_type=log10(MIC) value_reported=0.00
compound=CCCCCCCCCCCC[N+](C)(C)CCC[N+](C)(C)CCC[N+](C)(C)CCCCCCCCCCCC target_system="Staphylococcus aureus" value_type=log10(MIC) value_reported=0.00
compound=CCCCCCCCCCCCCC[N+](C)(C)CCN(C)CCN(C)CCN(C)C target_system="Staphylococcus aureus" value_type=log10(MIC) value_reported=1.20
compound=CCCCCCCCCCCCCC[N+](C)(C)CCN(C)CC[N+](C)(C)CCCCCCCCCCCCCC target_system="Staphylococcus aureus" value_type=log10(MIC) value_reported=0.30
compound="CCCCCCCCCCCC[N+](C)(C)Cc1ccccc1 [BENZODODECINIUM CHLORIDE]" target_system="Staphylococcus aureus" value_type=log10(MIC) value_reported=0.90
compound=CCCCCCCCCCCC[N+](C)(C)CCN(C)CCN(C)CC[N+](C)(C)CCCCCCCCCCCC target_system="Staphylococcus aureus" value_type=log10(MIC) value_reported=0.00
compound=C=CC[N+](C)(CC[N+](C)(C)CCCCCCCCCCC)CC[N+](C)(C)CCCCCCCCCCC target_system="Staphylococcus aureus" value_type=log10(MIC) value_reported=0.00
compound=C=CC[N+](C)(CC[N+](C)(C)CCCCCCCCCCCCCC)CC[N+](C)(C)CCCCCCCCCCCCCC target_system="Staphylococcus aureus" value_type=log10(MIC) value_reported=0.30
compound=CCCCCCCCCCCC[N+](C)(C)CCN(C)CC[N+](C)(C)CCCCCCCCCCCC target_system="Staphylococcus aureus" value_type=log10(MIC) value_reported=0.00
compound="C=CC[N+](C)(CC[N+](C)(C)CCCCCCCCCCCC)CC[N+](C)(CC=C)CC[N+](C)(C)CCCCCCCCCCCC (stereo not drawn)" target_system="Staphylococcus aureus" value_type=log10(MIC) value_reported=0.00
compound=C=CC[N+](C)(CC[N+](C)(C)CCCCCCCCCCCC)CC[N+](C)(C)CCCCCCCCCCCC target_system="Staphylococcus aureus" value_type=log10(MIC) value_reported=0.30
compound=CCCCCCCCCCC[N+](C)(C)CCN(C)CC[N+](C)(C)CCCCCCCCCCC target_system="Staphylococcus aureus" value_type=log10(MIC) value_reported=0.30
compound=CCCCCCCCCCCCCC[N+](C)(C)CCN(C)CCN(C)CC[N+](C)(C)CCCCCCCCCCCC target_system="Staphylococcus aureus" value_type=log10(MIC) value_reported=0.00
